Entry source: the Kinase Knowledgebase extract (Sharma et al. 2016)

target.or.system: MAPK14 (UniProt Q16539)
Sequence (Q16539 whole entry, looked up): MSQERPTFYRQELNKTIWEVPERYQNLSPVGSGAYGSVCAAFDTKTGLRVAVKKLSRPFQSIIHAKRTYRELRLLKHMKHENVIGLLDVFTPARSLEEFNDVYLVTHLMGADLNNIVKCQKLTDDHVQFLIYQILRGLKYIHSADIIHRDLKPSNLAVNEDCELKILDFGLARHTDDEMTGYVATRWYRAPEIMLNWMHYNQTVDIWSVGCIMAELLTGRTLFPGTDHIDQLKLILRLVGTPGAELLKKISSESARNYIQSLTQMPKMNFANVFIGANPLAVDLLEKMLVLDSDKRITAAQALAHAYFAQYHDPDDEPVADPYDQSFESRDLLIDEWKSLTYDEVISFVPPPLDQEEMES
recorded.endpoint: log10 of IC50 (log10 of the value in µM)
Use the decimal logarithm of IC50 (µM).

Use the examples below as a reference point.
[[record]]
smiles = "NC(=O)N(Cc1ccccc1Cl)c1cccc(-c2cc(F)ccc2F)n1"
target_or_system = "MAPK14 (UniProt Q16539)"
reported_value = 1.55

[[record]]
smiles = "Cc1cc(F)ccc1-c1cccc(N(Cc2cccc(F)c2)C(N)=O)n1"
target_or_system = "MAPK14 (UniProt Q16539)"
reported_value = 0.10

[[record]]
smiles = "NC(=O)N(Cc1c(Cl)cccc1Cl)c1cccc(-c2c(F)cccc2F)n1"
target_or_system = "MAPK14 (UniProt Q16539)"
reported_value = 1.10

[[record]]
smiles = "Cc1cc(F)ccc1-c1cccc(N(Cc2c(F)cccc2F)C(N)=O)n1"
target_or_system = "MAPK14 (UniProt Q16539)"
reported_value = 0.45

[[record]]
smiles = "Cc1ccccc1-c1cccc(N(Cc2ccccc2Cl)C(N)=O)n1"
target_or_system = "MAPK14 (UniProt Q16539)"
reported_value = -0.06


Task: Dear colleague, I am looking for the recorded log10 of IC50 of the following molecule: `NC(=O)N(Cc1c(F)cccc1F)c1ccc(CO)c(-c2ccc(F)cc2F)n1`
Result: 0.20
